All figures here come from ChEMBL document CHEMBL1201862.

System: NCI-H23
Test details: NCI tumour cell line growth inhibition, 48 h
Active and inactive are the calls of the source. Rule as the data show it: active = GI50 up to about 1.1 µM and inactive = higher.
Form entry, call: pick from label 1 = active, label 0 = inactive

What call does the record list for COc1ccc(CC/N=C2\CCC(C(=O)NCCc3ccc(OC)c(OC)c3)N2)cc1OC (stereo unspecified) ?
label 0

Returns: the outcome recorded for Nc1cc(CO)cc(Nc2c3ccccc3nc3ccccc23)c1 in this assay.
label 0

Just curious, what result did O=C(O)c1ccc(/N=C(\C(=N\c2ccc(C(=O)O)cc2)c2ccccc2)c2ccccc2)cc1 get here?
label 0

# fetch the recorded call for Cn1c2c3c(F)c(F)ccc3nc-2cc2ccccc21 here
label 0

Can you look up the reported call for N[C@H]1C2C3CC4C5CC(C42)C1(c1ccccc1)C53 (stereo partly specified) for me?
label 0

Check the results log: what was the call for Clc1ccc(CCc2ccncn2)c(Cl)c1 ?
label 0

Please share the test call associated with O=P12N(CCN1c1ccccc1)CCN2c1ccccc1 .
label 0

Which outcome did this test record for the compound Cc1cc(=O)oc2cc(OC(=O)N(C)C)c(Cl)cc12 ?
label 0

Any idea what this test logged for CC(C)C[C@H](NC(=O)[C@H](Cc1cccc2ccccc12)NC(=O)N1CCOCC1)B(O)O ?
label 1

For O/N=N/c1ccc(Sc2ccc(/N=N/O)cn2)nc1 , which call appears in the assay record?
label 0

// outcome(item) with item = CCC1=CCC(P(=O)(c2ccccc2)c2ccccc2)CC1C (stereo unspecified)
label 0

Test call, this compound: CC(C)[Si](OC12CCC(CC1O)CC2CO)(C(C)C)C(C)C (stereo unspecified)
label 0

So what was the verdict on CC(C(=O)NCNC(=O)c1ccccc1)C(=O)NCc1ccccc1 (stereo unspecified) in this test?
label 0

Fill in: this test's call for O=C1c2cccc([N+](=O)[O-])c2C(=O)c2nccnc21 is ___
label 0

Recorded test call requested for CCCO[C@@H]1[C@@H](OC(C)=O)[C@@H](OC(C)=O)C(C)(C)/C=C/[C@H](C)C(=O)[C@@]2(OC(C)=O)C[C@@](C)(OC(C)=O)[C@H](OC(C)=O)[C@@H]2[C@H]2OC(=O)CC[C@@]12OC(=O)c1ccccc1
label 0

// param item: C/C=C1\NC(=O)[C@H]2CSSCCC=C[C@H](CC(=O)N[C@H](C(C)C)C(=O)N2)OC(=O)[C@H](C(C)C)NC1=O ; yields the recorded call
label 1

Name the outcome recorded for O=C(O)[C@H]1CCCN1CP(=O)(O)CN1CCC[C@@H]1C(=O)O in the assay.
label 0

Short answer needed: outcome of this test for O=C1C(c2ccccc2)=C(c2ccccc2)C(c2ccc(Sc3ccc(C4=C(c5ccccc5)C(=O)C(c5ccccc5)=C4c4ccccc4)cc3)cc2)=C1c1ccccc1 ?
label 0

Entry CCC(C)c1c(Cl)nc(Cl)nc1Cl (stereo unspecified) : call = ?
label 0

// outcome(item) with item = CCC12C=CCN3CCC4(C(=C(C(=O)OC)[C@@H]1O)Nc1ccccc14)C32 (stereo partly specified)
label 0

Entry COc1ccc(NC(=S)NNC(=O)c2cc(-c3ccccc3)nc3ccccc23)cc1 : call = ?
label 0

Please share the test call associated with COc1ccc(C(=O)N/N=C/c2c(C)n(C)n(-c3ccccc3)c2=O)cc1 .
label 0

Outcome? CCOC(=O)N1CCc2cc(OC)c(OC)c3c2c1cc1cc(OC)c(OC)cc13
label 0

Would you mind telling me which call this test gave CNc1nnc(CNc2ccc(-c3nnc(NC)n3N)cc2)n1N ?
label 0

Returns: the outcome recorded for CC(=O)NC1C(OCc2ccccc2)OC(CO)C(O)C1OC(C)C(=O)NC(C(=O)NC(CCC(=O)NCCCNc1ccc([N+](=O)[O-])c2[nH]c3ccccc3c(=O)c12)C(N)=O)C(C)C (stereo unspecified) in this assay.
label 0

Hey, what did the test say about Cn1c2c3ccccc3nc-2c(O)c2ccccc21 [HYDROXYCRYPTOLEPINE] ?
label 0

Field: outcome | Entry: CO/N=C1/c2sccc2[C@H](NC(=O)CNC(=O)OC(C)(C)C)[C@@H]1O
label 0

Please state the recorded outcome for this compound: C(CCC[Te][Te]CCCCCCOC1CCCCO1)CCOC1CCCCO1 (stereo unspecified)
label 0

In this assay, the call recorded for COc1ccc(OC)c(/C=N/N=C(\N)NO)c1 was what?
label 0

Look up the recorded call for O=C1C(c2ccc(C3=[N+]([O-])c4cc([N+](=O)[O-])ccc4C3=O)cc2)=[N+]([O-])c2cc([N+](=O)[O-])ccc21 in this test.
label 0

I would be grateful if you could indicate the recorded call for NC(=O)C1CCN(Cc2c(Cl)c(Cl)c(CN3CCC(C(N)=O)CC3)c(Cl)c2Cl)CC1 .
label 0

Name the outcome recorded for CCCN(CCCC(NC(C)=O)C(=O)NCc1ccccc1)C(=O)N(CCCl)N=O (stereo unspecified) in the assay.
label 0

Record lookup: outcome of this test for O=C(NNC(c1ccccc1)C(F)(F)F)c1ccncc1 (stereo unspecified) ?
label 0

Which outcome was assigned to COc1ccccc1/C=C(\NC(=O)c1ccccc1)c1nc2ccccc2[nH]1 in this test?
label 0

Could you check what this test reported for C#CC1(O)CCC2C3CCc4cc(Oc5nc(F)nc(-c6c7ccccc7c7sc8ccccc8n67)n5)ccc4C3CC[C@@]21C (stereo partly specified) ?
label 0

How did this test come out for O=C1CC(O)c2c(Cl)sc(Cl)c21 (stereo unspecified) ?
label 0

What is the recorded call for this compound in the test? O=C1Nc2ccccc2Nc2ccncc21
label 0

What did this assay record as the result for Cc1ccc(-n2cc(/C(N)=N/O)c3ccccc3c2=O)cc1 ?
label 0

For COc1ccc2c(c1)C1c3ccccc3CCN1CCC2 (stereo unspecified) , what call appears in the results of this test?
label 0

Name the outcome recorded for Oc1c(C(O)c2ccccn2)ccc2ccccc12 (stereo unspecified) in the assay.
label 0

How was CCOC(=O)C1=C(C)NC(C)=C(C(=O)OCC)C1c1ccc(Cl)cc1 classified in this test?
label 0

* * *

System: MDA-MB-435
Test details: NCI tumour cell line growth inhibition, 48 h
Activity calls are given as the source filed them. No stated cut-off is given here; in the data, active = GI50 up to about 1.1 µM and inactive = higher. Where a SMILES comes first, the peptide text is derived from it. The star is where a group is joined. Fmoc = O=C(OCC1c2ccccc2-c2ccccc21)*; Boc = CC(C)(C)OC(=O)*
Endpoint name: GI50

For record COc1cccc(C(=O)C(O)c2cccc(OC)c2OC)c1OC (centres undefined) the listed GI50 is > 100 µM (inactive)

GI50 for CC1=NN(c2nc(N)nc(/C(C#N)=C\c3ccc(-c4ccc([N+](=O)[O-])cc4)o3)n2)C(C)(C)C1 is > 100 µM (inactive)

Reported GI50 ( COc1cc(C2c3cc4c(c(O)c3C(=O)C3CCC(=O)N32)OCO4)cc(OC)c1OC (centres undefined) ) = 18.2 µM (inactive)

Briefly, GI50 measured for [O-][n+]1onc2c1CCC(=N\O)/C2=N/Nc1ccccc1 : > 100 µM (inactive)

The recorded GI50 for entry c1ccc2c(c1)CCN(C1=NCCO1)C2 equals > 10 µM (inactive)

Summary for this compound, O=C1C2Cc3c(n(C(=O)c4ccccc4)c4ccccc34)CC2C(=O)N1c1ccc(Nc2ccc(N3C(=O)C4Cc5c(n(C(=O)c6ccccc6)c6ccccc56)CC4C3=O)cc2)cc1 (centres undefined) : GI50 is > 100 µM (inactive)

Measured GI50 of CN1C(=O)C(O)CC1c1ccccc1C(F)(F)F (centres undefined) : > 100 µM (inactive)

Noted for Cn1c2c3ccccc3nc-2c(O)c2ccccc21 [HYDROXYCRYPTOLEPINE] : its GI50 reads > 100 µM (inactive)

GET /value?item= C=C1C(NC)CCC23CC24CCC2(C)C(C(C)=O)C(O)CC2(C)C4CCC13 (centres undefined) &field=GI50 returns > 100 µM (inactive)

// sample CC(=O)O[C@H]1C[C@](C)(O)[C@@]23CC([C@@H](OC(=O)C(C)(C)O)[C@@H](OC(C)=O)C2(COC(=O)c2ccccc2)[C@H]1OC(C)=O)C(C)(C)O3 (some centres undefined) , its GI50 was > 100 µM (inactive)

The compound CC(CO)CCC(O)C(C)(O)C1CCC2(O)C3=CC(=O)C4CC(O)C(O)CC4(C)C3CCC12C (centres undefined) showed GI50 equal to > 100 µM (inactive)

NC(=S)N/N=C1\C(=O)Nc2c(Cl)cc(Cl)cc21 has a reported GI50 of 16.7 µM (inactive)

# compound Cc1ccc([S+]([O-])/C=C(\NC(=O)OCc2ccccc2)C(F)(F)F)cc1 (centres undefined) ; its GI50 = 22.4 µM (inactive)

Sure, the documented GI50 for CCc1nc(N)nc(N)c1-c1ccc(Cl)c(/N=C/N(C)C)c1 is 45.9 µM (inactive)

Given item C/C(=N\O)c1ccc2ccc3ccccc3c2c1 , the value recorded as its GI50 is 22.2 µM (inactive)

Lab note: measured GI50 of N#Cc1nc(-c2ccc(-c3nc(C#N)c(N)o3)cc2)oc1N was > 10 µM (inactive)

Short answer for Nc1cc(CO)cc(Nc2c3ccccc3nc3ccccc23)c1 : GI50 was 17 µM (inactive)

// recorded GI50 for CC(C)C(OC(=O)c1ccc(NCc2cc(O)ccc2O)cc1)C(C)C : 1.29 µM (inactive)

The reported value for CC(C)(C)OC(=O)NCCCCC(NC(=O)OCC1c2ccccc2-c2ccccc21)C(=O)N1CCCC1C(=O)NCC(N)=O (stereo not drawn) (Fmoc-Lys(Boc)-Pro-Gly-NH2; configuration not given here) in terms of GI50 is 27.6 µM (inactive)
